# Test system: NCI-H3122
# Test details: relative viability (nuclei count vs DMSO), 5 days (fraction); higher = more cells survive
# Measurement parameters: first compound 0.08 µM
Reported endpoint: relative viability

Requested field: relative viability. Item: O=c1cc(-c2cccc3c2Sc2ccccc2S3)oc(N2CCOCC2)c1 + O=C(c1cc(Cc2n[nH]c(=O)c3ccccc23)ccc1F)N1CCN(C(=O)C2CC2)CC1 [Olaparib] (partner 8 µM)
0.658

Try the molecule O=c1cc(-c2cccc3c2Sc2ccccc2S3)oc(N2CCOCC2)c1 + N=C(N)NC(=N)NCCc1ccccc1 [Phenformin] (partner 250 µM)
0.38

Same read-out for COc1nc(C)cnc1NS(=O)(=O)c1cccnc1-c1ccc(-c2nnco2)cc1 [Zibotentan] + CS(=O)(=O)N1CCN(Cc2cc3nc(-c4cccc5[nH]ncc45)nc(N4CCOCC4)c3s2)CC1 [Pictilisib] (partner 1 µM) ?
0.568
